System Under Test: Pro-neuregulin-1, membrane-bound isoform (Homo sapiens) (UniProt Q02297)
Sequence (Q02297 whole entry, looked up, canonical isoform): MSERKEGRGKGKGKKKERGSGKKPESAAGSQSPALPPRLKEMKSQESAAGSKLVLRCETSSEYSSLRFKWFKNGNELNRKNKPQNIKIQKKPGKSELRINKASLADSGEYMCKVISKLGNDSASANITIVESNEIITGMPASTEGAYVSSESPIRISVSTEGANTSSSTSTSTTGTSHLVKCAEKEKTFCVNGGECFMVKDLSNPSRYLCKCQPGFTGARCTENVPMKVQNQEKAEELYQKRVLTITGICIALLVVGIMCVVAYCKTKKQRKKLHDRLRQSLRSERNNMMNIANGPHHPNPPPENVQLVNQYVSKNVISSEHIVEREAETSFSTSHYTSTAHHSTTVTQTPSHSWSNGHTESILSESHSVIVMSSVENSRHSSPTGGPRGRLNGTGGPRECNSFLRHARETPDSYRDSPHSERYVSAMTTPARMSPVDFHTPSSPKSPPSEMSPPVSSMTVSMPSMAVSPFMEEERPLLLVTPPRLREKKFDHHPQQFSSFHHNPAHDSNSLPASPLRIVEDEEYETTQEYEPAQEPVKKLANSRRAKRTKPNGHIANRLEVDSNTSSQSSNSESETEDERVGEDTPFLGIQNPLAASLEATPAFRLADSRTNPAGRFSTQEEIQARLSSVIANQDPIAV
Assay Overview: NRG1 binders on small-molecule microarrays, primary screen, psychiatric disease protein project, biochemical, small-molecule microarray, fluorescence 635/667 (AID 1075);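 further: score combines 667 nm spot fluorescence with signal to noise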
Condition Context: NRG1 binding, 635 nm fluorescence, higher = more signal
Parameter: composite z-score
Enter the number alone.

In the examples that follow, each entry is paired with its recorded composite z-score.
| Input Smiles | System Under Test | composite z-score |
| --- | --- | --- |
| CCN1C(=O)[C@H]2[C@H]3[C@H](O)[C@H](O)CC(=NOC[C@@H](O)COCc4ccco4)[C@H]3CC[C@H]2C1=O | Pro-neuregulin-1, membrane-bound isoform (Homo sapiens) (UniProt Q02297) | -0.502 |
| CC(C)=CCCC(C)=CCON=C1C[C@@H](O)[C@@H](O)[C@@H]2[C@@H]3C(=O)N([C@@H](C)c4ccccc4)C(=O)[C@@H]3CC[C@@H]12 | Pro-neuregulin-1, membrane-bound isoform (Homo sapiens) (UniProt Q02297) | 0.137 |
| CC(CCN1CCCc2nc(C)c(C)cc21)=NO[C@H](C)c1cn([C@H](CO)Cc2ccccc2)nn1 | Pro-neuregulin-1, membrane-bound isoform (Homo sapiens) (UniProt Q02297) | 0.0463 |

IN: Supply reported composite z-score belonging to this compound: "O=C1[C@H]2[C@H]3[C@H](O)[C@H](O)CC(=NO[C@@H]4O[C@H](CO)[C@@H](O)[C@H](O)[C@H]4O)[C@@H]3CC[C@H]2C(=O)N1c1cccc(Oc2ccccc2)c1"
OUT: 0.495

Source listed as PubChem BioAssay.
